This collection of values is drawn from paper PMC12416549.

Target: T1, TNFR1 (Homo sapiens, UniProt P19438)
T1 chain: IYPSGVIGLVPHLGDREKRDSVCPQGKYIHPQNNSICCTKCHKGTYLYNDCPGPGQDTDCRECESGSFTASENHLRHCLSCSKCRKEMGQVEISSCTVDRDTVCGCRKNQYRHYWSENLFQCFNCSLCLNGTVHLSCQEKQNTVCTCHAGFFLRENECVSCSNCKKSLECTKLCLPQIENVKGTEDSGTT
Assay: yeast display SC50
endpoint: apparent Kd (screen) (nM)

[[record]]
binder = "K93R (designed binder) SMEEEVEKAAKEYEKKKKEAIEKHLEKLKAKDKEAAERFLKELEEAAKEYAKDEAKTMSEEEAKRRAKKYKEKVLLSELSEEEQKEIKEAEERLVRTILKYVEEAAK"
endpoint = "apparent Kd (screen)"
numeric_result = 0.593

[[record]]
binder = "E4W (designed binder) SMEWEVEKAAKEYEKKKKEAIEKHLEKLKAKDKEAAERFLKELEEAAKEYAKDEAKTMSEEEAKRRAKKYKEKVLLSELSEEEQKEIKEAEEKLVRTILKYVEEAAK"
endpoint = "apparent Kd (screen)"
numeric_result = 1.54


1 = K33N (designed binder) SMEEEVEKAAKEYEKKKKEAIEKHLEKLKAKDNEAAERFLKELEEAAKEYAKDEAKTMSEEEAKRRAKKYKEKVLLSELSEEEQKEIKEAEEKLVRTILKYVEEAAK
2 = L99G (designed binder) SMEEEVEKAAKEYEKKKKEAIEKHLEKLKAKDKEAAERFLKELEEAAKEYAKDEAKTMSEEEAKRRAKKYKEKVLLSELSEEEQKEIKEAEEKLVRTIGKYVEEAAK
Which one would you say has the larger apparent Kd (screen) value: 1 , or 2 ? Give the chosen item's label as your response.
2
(2: 5.31 nM, 1: 1.05 nM)
